Test system: LnCAP
Test: Alamar Blue cell viability assay, LnCAP
Format: cell-based
Settings: Homo sapiens, 96 h incubation, read-out: cell proliferation inhibition LnCAP
Structures can show the parent of a compound that is named as a salt.
# key: entry, value: IC50

{"compound": "CN1CCCN(c2ccc3cc(C(=O)O)c4nc5ccccc5n4c3n2)CC1 [Compound 1A, sodium salt]", "IC50": "5 to 10 µM"}
{"compound": "C[C@@H]1CN(c2ccc3cc(C#N)c4nc5ccccc5n4c3n2)C[C@H](C)N1", "IC50": "5 to 10 µM"}
{"compound": "CNC(=O)c1cc2ccc(N3CCCN(C)CC3)nc2n2c1nc1ccccc12", "IC50": "1 to 5 µM"}

* * *

Tested on: Hs.294T
Assay: Alamar Blue cell viability assay, Hs.294T
Type: cell-based
Settings: Homo sapiens, 96 h incubation, read-out: cell proliferation inhibition Hs.294T
Where a name gives a salt, the structure may show the parent alone.
# key: entry, value: IC50
outcome.measure: IC50

{"compound": "CN1CCCN(c2ccc3cc(C(=O)O)c4nc5ccccc5n4c3n2)CC1 [Compound 1A, sodium salt]", "outcome.measure": "IC50", "readout.value": "< 1000 nM"}
{"compound": "CNC(=O)c1cc2ccc(N3CCCN(C)CC3)nc2n2c1nc1ccccc12 [Compound 2G]", "outcome.measure": "IC50", "readout.value": "< 1000 nM"}

* * *

System: NB4-Av
Assay: Alamar Blue cell viability assay, NB4-Av
Assay type: cell-based
Details: 96 h incubation, read-out: cell proliferation inhibition NB4-Av
Procedure: Inhibitory activity on cell proliferation of representative compounds of the invention was determined using an Alamar Blue cell viability assay as described hereafter. […] Once titrations are made, the media in plates with cells were disposed and 100 μL of drug dilutions are transferred to plates with cells. […] At the end of this incubation the production of resofurin was measured using Spectrmax M2 microplate reader (Molecular Devices, Sunnyvale, Calif.)
Structures can show the parent of a compound that is named as a salt.
# key: entry, value: IC50

{"molecule": "CN1CCCN(c2ccc3cc(C(=O)O)c4nc5ccccc5n4c3n2)CC1 [Compound 1A, sodium salt]", "assay.target": "NB4-Av", "IC50": "< 1 µM"}
{"molecule": "C[C@@H]1CN(c2ccc3cc(C#N)c4nc5ccccc5n4c3n2)C[C@H](C)N1", "assay.target": "NB4-Av", "IC50": "< 1 µM"}
{"molecule": "CNC(=O)c1cc2ccc(N3CCCN(C)CC3)nc2n2c1nc1ccccc12", "assay.target": "NB4-Av", "IC50": "< 1 µM"}

* * *

System: JHOC9
Test: Alamar Blue cell viability assay, JHOC9 ovarian cell line
Format: cell-based
Conditions: 96 h incubation, read-out: IC50 in ovarian cell lines JHOC9
Method: Inhibitory activity on cell proliferation of representative compounds of the invention was determined using an Alamar Blue cell viability assay as described hereafter. […] Once titrations are made, the media in plates with cells were disposed and 100 μL of drug dilutions are transferred to plates with cells. […] At the end of this incubation the production of resofurin was measured using Spectrmax M2 microplate reader (Molecular Devices, Sunnyvale, Calif.)
pIC50: −log10 of the molar value.

{"compound": "CNC(=O)c1cc2ccc(N3CCCN(C)CC3)nc2n2c1nc1ccccc12 [Compound 2G]", "assay.target": "JHOC9", "pIC50": "> 6.00"}
